TESTED ON: Avi-KRAS G12D (1-169) GppNHp/RAF1 RBD-3xFLAG (52-151) (Homo sapiens, UniProt P01116, G12D)
Construct: Avi-KRAS G12D (1-169)
Sequence (P01116 1-169 isoform P01116-2 G12D): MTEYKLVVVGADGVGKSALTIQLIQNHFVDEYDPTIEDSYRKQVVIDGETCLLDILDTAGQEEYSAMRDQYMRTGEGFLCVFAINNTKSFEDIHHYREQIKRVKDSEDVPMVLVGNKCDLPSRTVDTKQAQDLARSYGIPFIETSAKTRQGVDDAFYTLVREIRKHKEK
ASSAY NOTES: Raf1-KRAS G12D-GppNHP disruption HTRF assay (Biological Example 1)
Type: binding
TEST SETTINGS: KRAS G12D, GppNHp-loaded; Table 11

COMPOUND	IC50
CN(c1nc(OCC2(CN3CCOCC3)CC2)nc2c(F)c(-c3ccc(F)c4sc(N)c(C#N)c34)c(C(F)(F)F)cc12)[C@H]1C[C@@H](O)C1 (atropisomer, axis not shown)	100 to 1000 nM
CN(c1nc(OCC23CCCN2CCC3)nc2c(F)c(-c3ccc(F)c4sc(N)nc34)c(-c3ccoc3)cc12)[C@H]1C[C@@H](O)C1	1000 to 10000 nM
CS(=O)(=O)N1CCN(c2nc(OC[C@@]34CCCN3C[C@H](F)C4)nc3c(F)c(-c4ccc(F)c5sc(N)c(C#N)c45)c(C(F)(F)F)cc23)CC1	1000 to 10000 nM
CO[C@@H]1C[C@@H](COc2nc(N(C)C3CC(O)C3)c3cc(C(F)(F)F)c(-c4ccc(F)c5sc(N)c(C#N)c45)c(F)c3n2)N(C)C1 (some centres unmarked)	100 to 1000 nM
N#Cc1c(N)sc2c(F)ccc(-c3c(C(F)(F)F)cc4c(N5CCN(CCO)C(=O)C5)nc(OC[C@@]56CCCN5C[C@H](F)C6)nc4c3F)c12	100 to 1000 nM
